These measurements were taken from patent US6720423B2.

Target: RARα (Homo sapiens)
Sequence (P10276 1-462): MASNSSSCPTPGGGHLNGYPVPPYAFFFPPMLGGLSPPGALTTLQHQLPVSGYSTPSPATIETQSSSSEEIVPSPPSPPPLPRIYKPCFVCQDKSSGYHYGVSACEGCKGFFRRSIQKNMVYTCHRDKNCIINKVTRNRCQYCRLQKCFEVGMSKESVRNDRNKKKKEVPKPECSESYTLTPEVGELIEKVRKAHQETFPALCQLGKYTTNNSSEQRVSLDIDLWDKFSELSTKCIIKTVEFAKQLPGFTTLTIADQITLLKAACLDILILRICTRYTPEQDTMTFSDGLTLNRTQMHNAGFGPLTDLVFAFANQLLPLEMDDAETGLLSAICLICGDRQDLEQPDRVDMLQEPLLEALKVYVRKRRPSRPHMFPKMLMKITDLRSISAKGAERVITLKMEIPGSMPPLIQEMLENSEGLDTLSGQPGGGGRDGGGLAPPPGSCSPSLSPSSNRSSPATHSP
Assay: ligand binding assay, RARα
Conditions: second entry of cell, read-out: RAR Bind. Ki (nM) α
Field: Ki. Provide a value for each of the molecules that follow.

## Input Form field: reported Ki of CC(/C=C/[C@@H]1C[C@]1(C)c1cc(-c2c(C)cccc2C)c2c(c1)C(C)(C)CO2)=C\C(=O)O [Compound 24]
## Output > 10000 nM

## Input Form field: reported Ki of CC(/C=C/[C@@H]1C[C@]1(C)c1cc(-c2ccccc2C)c2c(c1)C(C)(C)CO2)=C\C(=O)O [Compound 26]
## Output > 10000 nM

## Input Form field: reported Ki of CC(/C=C/[C@@H]1C[C@]1(C)c1cc(-c2ccccc2)c2c(c1)C(C)(C)CO2)=C\C(=O)O [Compound 22]
## Output > 10000 nM

## Input Form field: reported Ki of CC(/C=C/[C@@H]1C[C@]1(C)c1cc(CC(C)(C)C)c2c(c1)C(C)(C)CO2)=C\C(=O)O [Compound 12]
## Output 18000 nM

## Input Form field: reported Ki of CCCCCCCc1ccccc1-c1cc([C@@]2(C)C[C@H]2/C=C/C(C)=C/C(=O)O)cc2c1OCC2(C)C [Compound 28]
## Output 2620 nM

## Input Form field: reported Ki of CC(/C=C/[C@@H]1C[C@]1(C)c1ccc2c(c1)C(C)(C)CO2)=C\C(=O)O [Compound 2]
## Output > 10000 nM

## Input Form field: reported Ki of CC(/C=C/[C@@H]1C[C@]1(C)c1cc(Br)c2c(c1)C(C)(C)CO2)=C\C(=O)O [Compound 20]
## Output > 10000 nM
